Hi there, I'd appreciate the recorded log10 IC50 for every entry that follows.
biological target: T1, human GLP-1 receptor (human, UniProt P43220 24-463); assay: SPA displacement of [125I]GLP-1(7-36)NH2 from hGLP-1R BHK membranes
T1 construct: whole, on cells; reporter assay on whole cells
*1 amine or outer side, *2 acyl side, *3 side chain or, on linkers, in order; H or OH if unused. Where no end group is shown, it is not given here. Side-chain parts run from the residue outwards. [ ]: non-standard residue; d: D form. The star is where a group is joined. C20 diacid = O=C(O)CCCCCCCCCCCCCCCCCCC(=O)*; C18 diacid = O=C(O)CCCCCCCCCCCCCCCCC(=O)*; γGlu = O=C(O)[C@H](CCC(=O)[*:2])N[*:1]; C14 diacid = O=C(O)CCCCCCCCCCCCC(=O)*; Desaminohistidyl = O=C(CCc1c[nH]cn1)*; AEEA = NCCOCCOCC(=O)O; Aib = CC(C)(N)C(=O)O
Each number you see is log10 of IC50, and the unit inside the log is nM.

Worked examples, 2 binders total:
XXHGTFTSDYSKYLERQAAREFIAWLLKK (Imp (desamino-His) at 7; Acb at 8; Lys35 N-epsilon acylated with 17-carboxyheptadecanoyl-γGlu-γGlu-Ado-γGlu-Ado-γGlu-Ado-γGlu-; C-terminal amide (GLP-1(7-37) numbering)) :: 0.36
[Desaminohistidyl][Aib]HGTFTSDVSRYLEGQAAREFIAWLLK([Gly-Ser-Glu-Gly-Ser-γGlu-γGlu-C18 diacid])T-NH2 :: -0.05

Hey, can you go through the list below and give me log10 IC50 for every item?
1. [Desaminohistidyl]AHGTFTSDVSKYLEGRAAREFIAWLLK([Ado-Ado-γGlu-γGlu-γGlu-C18 diacid])T-NH2
2. [Desaminohistidyl][Aib]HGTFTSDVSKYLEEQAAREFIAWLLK([Ado-Ado-γGlu-γGlu-C14 diacid])T-NH2
3. XXHGTFTSDYSRYLEGRAAREFIAWLLRK (Imp (desamino-His) at 7; Acb at 8; Lys35 N-epsilon acylated with 17-carboxyheptadecanoyl-γGlu-γGlu-Ado-γGlu-Ado-γGlu-Ado-γGlu-; C-terminal amide (GLP-1(7-37) numbering))
4. [Desaminohistidyl][Aib]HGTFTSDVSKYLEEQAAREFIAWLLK([Ado-Ado-γGlu-γGlu-C20 diacid])T-NH2
5. [Desaminohistidyl][Aib]HGTFTSDVSKYLEARAAREFIAWLLKGGG (not fully specified (residue 28); printed as Nε34-[(4S)-4-carboxy-4-[[2-[2-[2-[[2-[2-[2-[[(4S)-4-carboxy-4-[[(4S)-4-carboxy-4-(17-carboxyheptadecanoylamino)butanoyl]amino]butanoyl]amino]ethoxy]ethoxy]acetyl]amino]ethoxy]ethoxy]acetyl]amino]butanoyl]-[Imp7,Aib8,His9,Lys18,Ala22,Arg23,Arg26,Leu33,Gly36]-GLP-1-(7-37)-peptide)

0.00
0.18
0.83
-0.40
-0.52

Hey, can you go through the list below and give me log10 IC50 for every item?
1. [Desaminohistidyl][Aib]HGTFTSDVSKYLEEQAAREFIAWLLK([γGlu-γGlu-Ser-Gly-Glu-Ser-Gly-C18 diacid])T (Named as peptide, not peptide amide (C-terminal acid))
2. [Desaminohistidyl][Aib]HGTFTSDVSRYLEGRAAREFIAWLLK([γGlu-γGlu-AEEA-γGlu-γGlu-C18 diacid])GSG

1. 0.36
2. 0.23
